# Test system: 556581-035-R-J1-PDC complex spheroid growth;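 further: spheroids exposed to agents for 7 days before viability read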
# Test summary: Anticancer human tumor 556581-035-R-J1-PDC patient-derived ovarian carcinoma cell line growth inhibition [Asc]
# Setup conditions: second compound 0.949 µM; first compound 10 µM; hits give low values
Property name: viability, T/C (%)
Report the value in % with no unit label.

Form: item C#Cc1c(F)ccc2cc(O)cc(-c3ncc4c(N5CC6CCC(C5)N6)nc(OCC56CCCN5CC(F)C6)nc4c3F)c12 (centres undefined) + CCN1C(C(=O)NC23CCC(C(=O)O)(CC2)CC3)C(c2cccc(Cl)c2F)C2(C(=O)Nc3cc(Cl)ccc32)C12CCCCC2 ; test system 556581-035-R-J1-PDC complex spheroid growth; viability, T/C: 78.5

Response field viability, T/C (556581-035-R-J1-PDC complex spheroid growth) for item O=C(c1cc(Cc2n[nH]c(=O)c3ccccc23)ccc1F)N1CCN(C(=O)C2CC2)CC1 + CCN1C(C(=O)NC23CCC(C(=O)O)(CC2)CC3)C(c2cccc(Cl)c2F)C2(C(=O)Nc3cc(Cl)ccc32)C12CCCCC2 : 83.6

Hey, 556581-035-R-J1-PDC complex spheroid growth data for C=C(F)C(=O)N1CCN(c2nc(OCC3CCCN3C)nc3c2CCN(c2cccc4cccc(Cl)c24)C3)CC1CC#N (centres undefined) + CCN1C(C(=O)NC23CCC(C(=O)O)(CC2)CC3)C(c2cccc(Cl)c2F)C2(C(=O)Nc3cc(Cl)ccc32)C12CCCCC2 : viability, T/C came out at 12.3

Observed viability, T/C, 556581-035-R-J1-PDC complex spheroid growth, C=CC(=O)N1CCN(c2nc(=O)n(-c3c(C)ccnc3C(C)C)c3nc(-c4c(O)cccc4F)c(F)cc23)C(C)C1 (centres undefined) + CCN1C(C(=O)NC23CCC(C(=O)O)(CC2)CC3)C(c2cccc(Cl)c2F)C2(C(=O)Nc3cc(Cl)ccc32)C12CCCCC2 : 103

Values compiled from PubChem BioAssay AID1963450.
